Where do the numbers come from? From patent US6133294A.

tested on: Leptosphaeria nodorum; assay: Glume blotch of wheat (Leptosphaeria nodorum--LEPTNO); assay type: in vivo; settings: Parastagonospora nodorum; wheat (cultivar Monon), 100 ppm spray to run off, inoculated after 24 hours, 1DP; read-out: control of plant disease, LEPTNO 1DP
observable: pest or weed control at 100 ppm

Would you please look over these solved cases?
CNC(=O)C(=NOC)c1ccccc1COc1cccc(-c2nc(C(F)(F)F)no2)n1 [Example 89]; 0 to 24%
CNC(=O)C(=NOC)c1ccccc1COc1ccc(-c2noc(-c3ccccc3)n2)cn1 [Example 12]; 75 to 100%
CNC(=O)C(=NOC)c1ccccc1COc1ncc(-c2noc(-c3cccs3)n2)cc1Cl [Example 20]; 0 to 24%
CNC(=O)C(=NOC)c1ccccc1COc1ncc(-c2noc(C3CC3)n2)cc1Cl [Example 21]; 75 to 100%
CNC(=O)C(=NOC)c1ccccc1COc1ncc(-c2nc(N(C)C)no2)cc1Cl [Example 64]; 75 to 100%
CNC(=O)C(=NOC)c1ccccc1COc1ccc(-c2nc(C(C)(C)C)no2)cn1 [Example 65]; 75 to 100%
COC=C(C(=O)OC)c1ccccc1COc1ncc(-c2noc(C(C)(C)C)n2)cc1Cl [Example 98]; 75 to 100%

Documented pest or weed control at 100 ppm of CNC(=O)C(=NOC)c1ccccc1COc1ncc(-c2noc(CC(C)(C)C)n2)cc1Cl [Example 17] : 75 to 100%

###

test system: Leptosphaeria nodorum; assay: Glume blotch of wheat (Leptosphaeria nodorum--LEPTNO); format: in vivo; conditions: Parastagonospora nodorum; wheat (cultivar Monon), 100 ppm spray to run off, inoculated after 24 hours, 1DP; read-out: control of plant disease, LEPTNO 1DP
observable: pest or weed control at 100 ppm

CCOc1cc(-c2cnc(OCc3ccccc3C(=NOC)C(=O)NC)c(Cl)c2)no1; 0 to 24%

Please report pest or weed control at 100 ppm for every entry that follows.
1. CCc1noc(-c2nc(OCc3ccccc3C(=NOC)C(=O)NC)ccc2Cl)n1
2. CNC(=O)C(=NOC)c1ccccc1COc1ncc(-c2nnc(C3CC3)o2)cc1Cl
3. CNC(=O)C(=NOC)c1ccccc1COc1cccc(-c2nc(C(C)C)no2)n1
4. CNC(=O)C(=NOC)c1ccccc1COc1ncc(-c2noc(-c3ccco3)n2)cc1Cl
5. CCc1nnc(-c2cnc(OCc3ccccc3C(=NOC)C(=O)NC)c(Cl)c2)o1
6. CNC(=O)C(=NOC)c1ccccc1COc1ncc(-c2nc(C3CC3)no2)cc1Cl
7. CCc1noc(-c2cnc(OCc3ccccc3C(=COC)C(=O)OC)c(Cl)c2)n1
8. CNC(=O)C(=NOC)c1ccccc1COc1ncc(-c2noc(C(F)(F)F)n2)cc1Cl

result:
1. 25 to 74%
2. 0 to 24%
3. 75 to 100%
4. 75 to 100%
5. 75 to 100%
6. 25 to 74%
7. 75 to 100%
8. 75 to 100%

###

system: Leptosphaeria nodorum; test: Glume blotch of wheat (Leptosphaeria nodorum--LEPTNO); format: in vivo; conditions: Parastagonospora nodorum; wheat (cultivar Monon), 100 ppm spray to run off, inoculated after 24 hours, 1DP; read-out: control of plant disease, LEPTNO 1DP
observable: pest or weed control at 100 ppm

Would you please look over these solved cases?
CNC(=O)C(=NOC)c1ccccc1COc1ncc(-c2nc(CC(C)C)no2)cc1Cl [Example 77]; 75 to 100%
CCc1noc(-c2cnc(OCc3ccccc3C(=NOC)C(=O)OC)c(Cl)c2)n1 [Example 101]; 25 to 74%
CCc1noc(-c2ccc(OCc3ccccc3C(=NOC)C(=O)NC)nc2)n1 [Example 63]; 25 to 74%
CNC(=O)C(=NOC)c1ccccc1COc1ccc(Cl)c(-c2nc(C(C)(C)C)no2)n1 [Example 82]; 75 to 100%
CNC(=O)C(=NOC)c1ccccc1COc1ccc(-c2noc(C)n2)cn1 [Example 10]; 75 to 100%
CCc1noc(-c2cnc(OCc3ccccc3C(=NOC)C(=O)NC)c(Cl)c2)n1 [Example 54]; 75 to 100%

Please report pest or weed control at 100 ppm for every entry that follows.
1. CNC(=O)C(=NOC)c1ccccc1COc1ncc(-c2cc(C(C)(C)C)on2)cc1Cl [Example 41]
2. CNC(=O)C(=NOC)c1ccccc1COc1ncc(-c2nnc(C)o2)cc1Cl [Example 3]

result:
75 to 100%
75 to 100%
